Molecular target: DNA (cytosine-5)-methyltransferase 1 (Homo sapiens)
Assay: inhibition of DNA methyltransferase DNMT1 – biochemical, molecular beacon, fluorescence, HinP1I cleavage, uHTS, primary screen (AID 588458)
Settings: at 10 µM
Screen size: about 360,000 compounds; about 3,000 (0.83%) were called active. No stated cut-off is given here; in the data, active means inhibition above about 50%; inactive means the rest. The sample as a whole holds a higher share of actives than the screen did.
Possible outcomes: true (active), false (inactive)

> print(dat)
                      structuresmilesstring                            measuredtarget  discretelabel
1                      Cc1ccc(C)n1-c1ccncc1  DNA (cytosine-5)-methyltransferase 1 (Homo sapiens)          false
2      CC(=O)N/C(=C/c1ccc(OC(F)F)cc1)C(=O)O  DNA (cytosine-5)-methyltransferase 1 (Homo sapiens)          false
3    O=S(=O)(Nc1n[nH]c(C(F)(F)F)n1)c1ccccc1  DNA (cytosine-5)-methyltransferase 1 (Homo sapiens)          false
4  COc1ccc(Br)cc1/C=N/Nc1ccc(S(=O)(=O)Nc2ccccc2C(=O)O)cc1[N+](=O)[O-]  DNA (cytosine-5)-methyltransferase 1 (Homo sapiens)           true
